TARGET_UNDER_TEST: SOS1 (Homo sapiens)
Construct: adding equal amounts of HIS-SOS1cat (160 nM; Cytoskeleton, US); His; purchased Cytoskeleton, US
ASSAY_NAME: SOS-catalyzed nucleotide exchange assay (HTRF, SOS1-mediated GTP loading of KRAS G12D)
Assay type: biochemical
CONDITION_CONTEXT: GST-KRAS G12D, HIS-SOS1cat, EDA-GTP-DY-647P1; compound 128 pM to 10 µM; read-out: SOS-catalyzed nucleotide exchange assay (IC50 range, Grade)
Description: SOS1 activity was measured by SOS1-mediated GTP loading quantification of KRAS^G12D. GTP-loaded KRAS^G12D was detected by HTRF (Homogeneous Time Resolved Fluorescence) using anti-GST terbium (Cisbio, France) as a donor and a fluorescence GTP analogue (EDA-GTP-DY-647P1, [DY-647P1-labeled 2'/3'-O-(2-aminoethyl-carbamoyl)guanosine-5'-triphosphate (Jena bioscience, Germany)]) as an acceptor. […]
Each record here notes measured IC50.

| STRUCTURE_STRING | IC50 |
| --- | --- |
| Cc1cc(C(=O)N[C@H](C)c2cccc(C(F)(F)F)c2F)cn(-c2cncc(-c3cnnn3C)c2)c1=O | < 1000 nM |
| C[C@@H](NC(=O)c1ccc(=O)n(-c2ccccc2OC(F)F)n1)c1cccc(C(F)(F)CO)c1F | < 1000 nM |
| C[C@@H](NC(=O)c1ccc(=O)n(C2=CCN(S(C)(=O)=O)CC2)c1)c1cc(N)cc(C(F)(F)F)c1 | < 1000 nM |
| C[C@@H](NC(=O)c1ccc(=O)n(C2CCOCC2)n1)c1cccc(Cl)c1 | 1000 to 10000 nM |
| C[C@@H](NC(=O)c1ccc(=O)n(-c2cccc(-c3ccnn3C(F)F)c2)n1)c1cc(N)cc(C(F)(F)F)c1 | < 1000 nM |

Which IC50 value is on record for "Cc1cc(C(=O)N[C@H](C)c2cc(N)cc(C(F)(F)F)c2F)nn(-c2cncc(-c3cnnn3C)c2)c1=O" ? < 1000 nM

Follow-up entry: "C[C@@H](NC(=O)c1ccc(=O)n(-c2cc(CO)ccc2F)n1)c1cc(N)cc(C(F)(F)F)c1" < 1000 nM

----------
TARGET_UNDER_TEST: SOS1 (Homo sapiens)
Construct: adding equal amounts of HIS-SOS1cat (160 nM; Cytoskeleton, US); His; purchased Cytoskeleton, US
ASSAY_NAME: SOS-catalyzed nucleotide exchange assay (HTRF, SOS1-mediated GTP loading of KRAS G12D)
Assay type: biochemical
CONDITION_CONTEXT: GST-KRAS G12D, HIS-SOS1cat, EDA-GTP-DY-647P1; compound 128 pM to 10 µM; read-out: SOS-catalyzed nucleotide exchange assay (IC50 range, Grade)
READOUT_NAME: IC50

Consider the following illustrative entries.
| MOLECULE | TARGET_UNDER_TEST | IC50 |
| --- | --- | --- |
| C[C@@H](NC(=O)c1ccc(=O)n(-c2ccccc2)n1)c1cccc(OC(F)(F)F)c1 | SOS1 (Homo sapiens) | 1000 to 10000 nM |
| C[C@@H](NC(=O)c1ccc(=O)n(-c2cccc(NS(C)(=O)=O)c2)n1)c1cc(N)cc(C(F)(F)F)c1 | SOS1 (Homo sapiens) | 1000 to 10000 nM |
| C[C@@H](NC(=O)c1ccc(=O)n(-c2cccc(NS(C)(=O)=O)c2)n1)c1cccc(C(F)(F)CO)c1 | SOS1 (Homo sapiens) | < 1000 nM |
| C[C@@H](NC(=O)c1cc(C2CC2)c(=O)n(-c2ccccc2)n1)c1cc(N)cc(C(F)(F)F)c1 | SOS1 (Homo sapiens) | < 1000 nM |
| C[C@@H](NC(=O)c1ccc(=O)n(-c2ccncc2)c1)c1cc(N)cc(C(F)(F)F)c1 | SOS1 (Homo sapiens) | < 1000 nM |
| CC(C)Oc1ccc(-n2nc(C(=O)N[C@H](C)c3cc(N)cc(C(F)(F)F)c3)ccc2=O)cc1 | SOS1 (Homo sapiens) | < 1000 nM |
| C[C@@H](NC(=O)c1ccc(=O)n(-c2cccc(F)c2F)c1)c1cc(N)cc(C(F)(F)F)c1 | SOS1 (Homo sapiens) | < 1000 nM |
| C[C@@H](NC(=O)c1ccc(=O)n(-c2ccccc2)n1)c1cccc(Cl)c1 | SOS1 (Homo sapiens) | 1000 to 10000 nM |
| COc1ccc(-n2nc(C(=O)N[C@H](C)c3cc(N)cc(C(F)(F)F)c3)ccc2=O)cc1OC | SOS1 (Homo sapiens) | < 1000 nM |
| C[C@@H](NC(=O)c1ccc(=O)n(-c2ccccc2)n1)c1cccc(C(F)(F)CO)c1F | SOS1 (Homo sapiens) | < 1000 nM |

Which IC50 value is on record for "C[C@@H](NC(=O)c1ccc(=O)n(-c2ccccn2)n1)c1cc(N)cc(C(F)(F)F)c1" ? < 1000 nM

Follow-up entry: "C[C@@H](NC(=O)c1ccc(=O)n(-c2cccc(N3CCN(C)C3=O)c2)c1)c1cc(N)cc(C(F)(F)F)c1" < 1000 nM

Follow-up entry: "C[C@@H](NC(=O)c1ccc(=O)n(C2CC2)n1)c1cc(N)cc(C(F)(F)F)c1" 1000 to 10000 nM

Follow-up entry: "C[C@@H](NC(=O)c1ccc(=O)n(-c2cccc(C(=O)OC(C)(C)C)c2)c1)c1cc(N)cc(C(F)(F)F)c1" < 1000 nM

Follow-up entry: "C[C@@H](NC(=O)c1ccc(=O)n(C2CCN(S(C)(=O)=O)CC2)n1)c1cccc(Cl)c1" 1000 to 10000 nM

Follow-up entry: "C[C@@H](NC(=O)c1ccc(=O)n(-c2c(F)cccc2F)c1)c1cc(N)cc(C(F)(F)F)c1" 1000 to 10000 nM

Follow-up entry: "C[C@@H](NC(=O)c1ccc(=O)n(-c2ccccc2)n1)c1cccc(Oc2ccccc2)c1" < 1000 nM

Follow-up entry: "C[C@@H](NC(=O)c1ccc(=O)n(C2CCN(S(C)(=O)=O)CC2)n1)c1cc(N)cc(C(F)(F)F)c1" 1000 to 10000 nM

Follow-up entry: "COc1ccc(-n2nc(C(=O)N[C@H](C)c3cc(N)cc(C(F)(F)F)c3)ccc2=O)c(OC)c1" < 1000 nM

----------
TARGET_UNDER_TEST: SOS1 (Homo sapiens, UniProt Q07889)
Construct: adding equal amounts of HIS-SOS1cat (160 nM; Cytoskeleton, US); His; purchased Cytoskeleton, US
Sequence (Q07889 564-1049 limits assumed): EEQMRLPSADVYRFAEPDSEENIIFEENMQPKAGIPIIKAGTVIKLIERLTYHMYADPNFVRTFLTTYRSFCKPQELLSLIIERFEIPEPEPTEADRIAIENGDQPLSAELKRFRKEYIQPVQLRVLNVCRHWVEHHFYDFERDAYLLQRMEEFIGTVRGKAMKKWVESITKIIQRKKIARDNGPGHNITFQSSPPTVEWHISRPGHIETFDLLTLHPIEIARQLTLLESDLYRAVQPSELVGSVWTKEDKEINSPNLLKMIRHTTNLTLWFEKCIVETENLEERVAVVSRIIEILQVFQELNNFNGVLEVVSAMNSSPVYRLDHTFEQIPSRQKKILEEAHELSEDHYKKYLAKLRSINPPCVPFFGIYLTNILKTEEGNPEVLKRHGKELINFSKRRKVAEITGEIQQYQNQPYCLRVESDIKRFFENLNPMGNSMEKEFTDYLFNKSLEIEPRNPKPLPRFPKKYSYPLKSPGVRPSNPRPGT
ASSAY_NAME: SOS-catalyzed nucleotide exchange assay (HTRF, SOS1-mediated GTP loading of KRAS G12D)
Format: biochemical
CONDITION_CONTEXT: GST-KRAS G12D, HIS-SOS1cat, EDA-GTP-DY-647P1; compound 128 pM to 10 µM; read-out: SOS-catalyzed nucleotide exchange assay (IC50 range, Grade)
READOUT_NAME: IC50

| STRUCTURE_STRING | IC50 |
| --- | --- |
| C[C@@H](NC(=O)c1ccc(=O)n(-c2cccc3ccccc23)n1)c1cc(N)cc(C(F)(F)F)c1 | < 1000 nM |
| C[C@@H](NC(=O)c1ccc(=O)n(-c2ccccc2)n1)c1ccc(Cl)cc1 | > 10000 nM |
| C[C@@H](NC(=O)c1ccc(=O)n(-c2ccccc2)n1)c1cccc(C(F)(F)F)c1 | < 1000 nM |
| COc1ccc(-n2nc(C(=O)N[C@H](C)c3cccc(C(F)(F)CO)c3F)ccc2=O)c(OC)c1 | < 1000 nM |
| C[C@@H](NC(=O)c1ccc(=O)n(-c2ccc(F)c(-c3cnnn3C)c2)n1)c1cccc(C(F)(F)F)c1F | < 1000 nM |

// map "C[C@@H](NC(=O)c1ccc(=O)n(-c2ccccc2)n1)c1ccc2ccccc2c1" to recorded IC50 (system: SOS1 (Homo sapiens, UniProt Q07889)) 1000 to 10000 nM

Follow-up entry: "C[C@@H](NC(=O)c1ccc(=O)n(-c2ccccc2CO)n1)c1cc(N)cc(C(F)(F)F)c1" 1000 to 10000 nM

Follow-up entry: "C[C@@H](NC(=O)c1cc(O)c(=O)n(-c2ccccc2)n1)c1cc(N)cc(C(F)(F)F)c1" 1000 to 10000 nM

Follow-up entry: "C[C@@H](NC(=O)c1ccc(=O)n(-c2cccc(CO)c2)c1)c1cc(N)cc(C(F)(F)F)c1" < 1000 nM

Follow-up entry: "CNCc1ccc(Cl)cc1-c1cnc([C@@H](C)NC(=O)c2ccc(=O)n(-c3ccccc3F)c2)s1" < 1000 nM

----------
TARGET_UNDER_TEST: SOS1 (Homo sapiens, UniProt Q07889)
Construct: adding equal amounts of HIS-SOS1cat (160 nM; Cytoskeleton, US); His; purchased Cytoskeleton, US
ASSAY_NAME: SOS-catalyzed nucleotide exchange assay (HTRF, SOS1-mediated GTP loading of KRAS G12D)
Format: biochemical
CONDITION_CONTEXT: GST-KRAS G12D, HIS-SOS1cat, EDA-GTP-DY-647P1; compound 128 pM to 10 µM; read-out: SOS-catalyzed nucleotide exchange assay (IC50 range, Grade)
pIC50: −log10 of the molar value.
READOUT_NAME: pIC50

Consider the following illustrative entries.
| COMPOUND | READOUT_NAME | MEASURED_RESULT |
| --- | --- | --- |
| C[C@@H](NC(=O)c1ccc(=O)n(-c2ccc(F)cc2F)c1)c1cc(N)cc(C(F)(F)F)c1 | pIC50 | > 6.00 |
| COc1ccc(-n2nc(C(=O)N[C@H](C)c3cc(N)cc(C(F)(F)F)c3)ccc2=O)c(F)c1 | pIC50 | > 6.00 |
| C[C@@H](NC(=O)c1ccc(=O)n(-c2cccc(NC(=O)C3CC3)c2)c1)c1cc(N)cc(C(F)(F)F)c1 | pIC50 | > 6.00 |
| C[C@@H](NC(=O)c1ccc(=O)n(-c2cccc(S(C)(=O)=O)c2)n1)c1cc(N)cc(C(F)(F)F)c1 | pIC50 | > 6.00 |
| C[C@@H](NC(=O)c1nn(-c2ccccc2)c(=O)cc1C1CC1)c1cc(N)cc(C(F)(F)F)c1 | pIC50 | > 6.00 |
| C[C@@H](NC(=O)c1ccc(=O)n(-c2cccc(S(C)(=O)=O)c2)n1)c1cccc(C(F)(F)CO)c1 | pIC50 | > 6.00 |
| C[C@@H](NC(=O)c1ccc(=O)n(-c2ccccc2F)n1)c1cccc(I)c1F | pIC50 | 5.00 to 6.00 |
| CC(=O)N1CCC(n2nc(C(=O)N[C@H](C)c3cccc(Cl)c3)ccc2=O)CC1 | pIC50 | 5.00 to 6.00 |
| Cc1cc(=O)n(-c2ccccc2)nc1C(=O)N[C@H](C)c1cc(N)cc(C(F)(F)F)c1 | pIC50 | 5.00 to 6.00 |
| C[C@@H](NC(=O)c1ccc(=O)n(C2C[C@@H]3CC[C@H]2C3)n1)c1cc(N)cc(C(F)(F)F)c1 (stereo partly drawn) | pIC50 | < 5.00 |

Which pIC50 value is on record for "C[C@@H](NC(=O)c1ccc(=O)n(-c2ccccc2)n1)c1cc(N)cc(C(F)(F)F)c1" ? > 6.00

Follow-up entry: "C[C@@H](NC(=O)c1ccc(=O)n(-c2ccccc2OC(F)(F)F)n1)c1cccc(C(F)(F)CO)c1F" > 6.00
